system: recombinant rat FAAH (rFAAH) (Rattus norvegicus)
Construct: The truncated rat FAAH (rFAAH) was expressed in E. coli and purified; made in house; host or cells: Escherichia coli
Sequence (P97612 30-579 limits assumed): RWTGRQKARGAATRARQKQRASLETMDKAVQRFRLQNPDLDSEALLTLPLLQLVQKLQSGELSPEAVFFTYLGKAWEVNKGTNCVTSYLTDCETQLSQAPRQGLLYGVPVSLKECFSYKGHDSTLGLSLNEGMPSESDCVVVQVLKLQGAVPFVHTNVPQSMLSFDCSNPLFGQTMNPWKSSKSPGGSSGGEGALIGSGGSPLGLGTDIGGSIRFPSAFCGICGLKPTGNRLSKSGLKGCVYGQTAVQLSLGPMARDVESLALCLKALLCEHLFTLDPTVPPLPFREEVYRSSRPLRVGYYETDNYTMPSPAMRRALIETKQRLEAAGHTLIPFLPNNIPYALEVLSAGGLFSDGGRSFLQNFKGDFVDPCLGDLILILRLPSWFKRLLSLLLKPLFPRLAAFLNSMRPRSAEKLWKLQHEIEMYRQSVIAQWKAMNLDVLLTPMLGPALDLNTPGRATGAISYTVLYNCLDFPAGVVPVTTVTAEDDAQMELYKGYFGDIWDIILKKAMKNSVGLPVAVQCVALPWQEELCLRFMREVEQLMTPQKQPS
assay.notes: Enzyme assay: inhibition of purified recombinant rat FAAH, 14C-oleamide hydrolysis, Ki by Dixon plot
Format: biochemical
condition.parameters: Ki, Table 4, (S)-enantiomer, additional FAAH inhibitors
Measured Ki values are reported for all entries that follow.
Answer with the figure and its unit, nothing else.

Some compounds with known Ki results, for comparison:
[[record]]
compound = "COC(=O)c1nnc(C(=O)C2CCc3cc(Oc4ccccc4)ccc3C2)o1 (single isomer, unassigned) [(S)-35]"
reported_result = "1.5 nM"

[[record]]
compound = "O=C(c1nnco1)C1CCc2cc(Oc3ccccc3)ccc2C1 (single isomer, unassigned) [(S)-34]"
reported_result = "0.5 nM"

[[record]]
compound = "O=C(c1ncco1)C1CCc2ccccc2C1 (single isomer, unassigned) [(S)-37]"
reported_result = "5100 nM"


// Ki lookup, compound = O=C(c1nnc(-c2ccccn2)o1)C1CCc2cc(Oc3ccccc3)ccc2C1 (single isomer, unassigned) [(S)-36] , result: 1 nM

// Ki lookup, compound = O=C(c1ncc(-c2ccccn2)o1)C1CCc2ccccc2C1 (single isomer, unassigned) [(S)-38] , result: 430 nM

====

Test system: endogenous levels of FAAH substrates AEA, PEA, OEA and of 2-AG, AA
assay.notes: In vivo pharmacodynamic studies: brain and liver lipid levels after inhibitor treatment (LC-MS)
Parameters: species or system mouse (C57BL/6J)
condition.parameters: Table 6; 30 mg/kg i.p., 1 h, single mouse
Response key: class 1 means Brain PEA >= 200 pmol/g; class 0 means Brain PEA < 200 pmol/g.

Illustrative cases are given below, each with its answer.
[[record]]
molecule = "O=C(CCCCCCc1ccccc1)c1ncc(-c2ccccn2)o1 [Compound 2, reference compound]"
system = "endogenous levels of FAAH substrates AEA, PEA, OEA and of 2-AG, AA"
cat = "class 1"

[[record]]
molecule = "O=C(c1ncc(-c2ccccn2)o1)C1Cc2ccc(Oc3ccccc3)cc2C1 (centres unmarked)"
system = "endogenous levels of FAAH substrates AEA, PEA, OEA and of 2-AG, AA"
cat = "class 1"

[[record]]
molecule = "O=C(O)c1cccc(-c2cnc(C(=O)C3Cc4ccc(Oc5ccccc5)cc4C3)o2)n1 (centres unmarked)"
system = "endogenous levels of FAAH substrates AEA, PEA, OEA and of 2-AG, AA"
cat = "class 0"

[[record]]
molecule = "O=C(O)c1cccc(-c2cnc(C(=O)C3CCc4cc(Oc5ccccc5)ccc4C3)o2)n1 (centres unmarked)"
system = "endogenous levels of FAAH substrates AEA, PEA, OEA and of 2-AG, AA"
cat = "class 1"


API: the following record is the query input.
**Q:** Hi team, for O=C(c1ncc(-c2ccccn2)o1)C1CCc2cc(Oc3ccccc3)ccc2C1 (centres unmarked) , is the recorded Brain PEA at or above 200 pmol/g?
**A:** class 1

====

Test system: endogenous levels of FAAH substrates AEA, PEA, OEA and of 2-AG, AA
assay.notes: In vivo pharmacodynamic studies: brain and liver lipid levels after inhibitor treatment (LC-MS)
Parameters: species or system mouse (C57BL/6J)
condition.parameters: Table 6; 30 mg/kg i.p., 1 h, single mouse
measured.property: Brain 2-AG

Some compounds with known Brain 2-AG results, for comparison:
[[record]]
compound = "O=C(c1ncc(-c2ccccn2)o1)C1Cc2ccc(Oc3ccccc3)cc2C1 (stereo not shown)"
reported_result = "11 pmol/g"

[[record]]
compound = "O=C(O)c1cccc(-c2cnc(C(=O)C3Cc4ccc(Oc5ccccc5)cc4C3)o2)n1 (stereo not shown)"
reported_result = "12 pmol/g"

[[record]]
compound = "O=C(c1ncc(-c2ccccn2)o1)C1CCc2cc(Oc3ccccc3)ccc2C1 (stereo not shown)"
reported_result = "13 pmol/g"


Switching to the query record.
// Brain 2-AG lookup, compound = O=C(O)c1cccc(-c2cnc(C(=O)C3CCc4cc(Oc5ccccc5)ccc4C3)o2)n1 (stereo not shown) , result: 14 pmol/g

====

system: recombinant rat FAAH (rFAAH) (Rattus norvegicus, UniProt P97612)
Construct: The truncated rat FAAH (rFAAH) was expressed in E. coli and purified; made in house; host or cells: Escherichia coli
assay.notes: Enzyme assay: inhibition of purified recombinant rat FAAH, 14C-oleamide hydrolysis, Ki by Dixon plot
Format: biochemical
condition.parameters: Ki, Table 2, (S)-enantiomer, 1,2,3,4-tetrahydronaphthalene C2 acyl side chain
Measured pKi values are reported for all entries that follow.
# log scale: pKi equals minus log10 of the concentration in mol/L

[[record]]
compound = "O=C(O)c1cccc(-c2cnc(C(=O)C3CCc4cc(Oc5ccccc5)ccc4C3)o2)n1 (single isomer, unassigned) [(S)-14]"
reported_result = 7.60

[[record]]
compound = "O=C(c1ncco1)C1CCc2cc(OCc3ccccc3)ccc2C1 (single isomer, unassigned) [(S)-15]"
reported_result = 8.21

[[record]]
compound = "O=C(c1ncco1)C1CCc2cc(-c3ccccc3)ccc2C1 (single isomer, unassigned) [(S)-3]"
reported_result = 7.24

[[record]]
compound = "O=C(c1ncc(-c2ccccn2)o1)C1CCc2cc(-c3ccccc3)ccc2C1 (single isomer, unassigned) [(S)-6]"
reported_result = 8.14

[[record]]
compound = "O=C(c1ncc(-c2ccccn2)o1)C1CCc2cc(OCc3ccccc3)ccc2C1 (single isomer, unassigned) [(S)-18]"
reported_result = 8.49


// pKi lookup, compound = O=C(O)c1cccc(-c2cnc(C(=O)C3CCc4cc(OCc5ccccc5)ccc4C3)o2)n1 (single isomer, unassigned) [(S)-20] , result: 7.47

// pKi lookup, compound = COC(=O)c1cnc(C(=O)C2CCc3cc(OCc4ccccc4)ccc3C2)o1 (single isomer, unassigned) [(S)-16] , result: 8.54

====

system: human FAAH (hFAAH) (Homo sapiens, UniProt O00519)
Construct: The full-length human FAAH (hFAAH) was expressed in COS-7 cells
Sequence (O00519 1-579): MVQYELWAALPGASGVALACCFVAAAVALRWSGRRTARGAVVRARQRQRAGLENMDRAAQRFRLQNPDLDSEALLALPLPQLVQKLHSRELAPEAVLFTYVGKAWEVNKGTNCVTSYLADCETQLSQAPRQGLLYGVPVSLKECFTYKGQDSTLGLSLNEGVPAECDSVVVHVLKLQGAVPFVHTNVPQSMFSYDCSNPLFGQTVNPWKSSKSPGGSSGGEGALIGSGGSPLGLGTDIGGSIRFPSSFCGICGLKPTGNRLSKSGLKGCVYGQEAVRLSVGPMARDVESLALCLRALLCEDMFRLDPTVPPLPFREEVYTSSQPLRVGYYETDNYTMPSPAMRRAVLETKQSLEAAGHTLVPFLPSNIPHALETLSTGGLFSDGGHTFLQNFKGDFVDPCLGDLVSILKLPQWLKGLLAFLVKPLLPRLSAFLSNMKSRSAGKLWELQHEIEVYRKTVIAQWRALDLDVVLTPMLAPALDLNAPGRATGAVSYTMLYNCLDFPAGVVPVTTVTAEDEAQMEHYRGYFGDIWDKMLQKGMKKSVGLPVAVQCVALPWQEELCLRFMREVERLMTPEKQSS
assay.notes: Enzyme assay: inhibition of human FAAH (lysate of hFAAH-transfected COS-7 cells), 14C-oleamide hydrolysis
condition.parameters: Table 5, active (S)-enantiomers
Measured Ki values are reported for all entries that follow.
Quick note: give the figure in nM, leave out the unit.

[[record]]
molecule = "O=C(O)c1cccc(-c2cnc(C(=O)C3CCc4cc(Oc5ccccc5)ccc4C3)o2)n1 (centres unmarked) [Compound 14]"
measured_property = "Ki"
reported_result = 110


Switching to the query record.
// Ki lookup, molecule = O=C(c1ncc(-c2ccccn2)o1)C1CCc2cc(Oc3ccccc3)ccc2C1 (centres unmarked) [Compound 12] , result: 5.8

====

Measured pKi values are reported for all entries that follow.
system: recombinant rat FAAH (rFAAH) (Rattus norvegicus)
Construct: The truncated rat FAAH (rFAAH) was expressed in E. coli and purified; made in house; host or cells: Escherichia coli
assay.notes: Enzyme assay: inhibition of purified recombinant rat FAAH, 14C-oleamide hydrolysis, Ki by Dixon plot
Type: biochemical
condition.parameters: Ki, Table 3, (R)-enantiomer, indane C2 acyl side chain
Method: Enzyme assays were performed at 20-23° C. with purified recombinant rat FAAH expressed in Escherichia coli or with solubilized COS-7 membrane extracts from cells transiently transfected with human FAAH cDNA (where specifically indicated) in a buffer of 125 mM Tris/1 mM EDTA/0.2% glycerol/0.02% Triton X-100/0.4 mM Hepes, pH 9.0. […] The inhibition assays were performed as follows. […] The ^14C-labeled oleamide (substrate) and oleic acid (product) were extracted with EtOAc and analyzed by TLC as detailed. […]
# log scale: pKi equals minus log10 of the concentration in mol/L

Some compounds with known pKi results, for comparison:
[[record]]
compound = "O=C(c1ncc(-c2ccccn2)o1)C1Cc2ccc(OCc3ccccc3)cc2C1 (single isomer, unassigned) [(R)-31]"
reported_result = 6.96

[[record]]
compound = "COC(=O)c1cccc(-c2cnc(C(=O)C3Cc4ccc(Oc5ccccc5)cc4C3)o2)n1 (single isomer, unassigned) [(R)-28]"
reported_result = 6.10

[[record]]
compound = "O=C(O)c1cccc(-c2cnc(C(=O)C3Cc4ccc(OCc5ccccc5)cc4C3)o2)n1 (single isomer, unassigned) [(R)-33]"
reported_result = 6.18

[[record]]
compound = "COC(=O)c1cccc(-c2cnc(C(=O)C3Cc4ccc(OCc5ccccc5)cc4C3)o2)n1 (single isomer, unassigned) [(R)-32]"
reported_result = 6.89

[[record]]
compound = "O=C(O)c1cccc(-c2cnc(C(=O)C3Cc4ccc(Oc5ccccc5)cc4C3)o2)n1 (single isomer, unassigned) [(R)-29]"
reported_result = 6.26


Switching to the query record.
// pKi lookup, compound = O=C(c1ncco1)C1Cc2ccc(Oc3ccccc3)cc2C1 (single isomer, unassigned) [(R)-26] , result: 6.70
